Origin of values: patent US20220268706A1

- target_desc: antibody-12/36-RLuc8 conjugate (Renilla reniformis)
- test_details: BRET competition, Fluorostar; 50 nM mAb-12/36-RLuc8, 200 nM FLAG-GFP^2 as competitor
pEC50: −log10 of the molar value.

| substance | pEC50 |
| --- | --- |
| FLAG peptide (DYKDDDDK) | 6.56 |
